Measured IC50 of individual entries
Target: Renin (Homo sapiens, UniProt P00797)
Sequence (P00797 whole entry): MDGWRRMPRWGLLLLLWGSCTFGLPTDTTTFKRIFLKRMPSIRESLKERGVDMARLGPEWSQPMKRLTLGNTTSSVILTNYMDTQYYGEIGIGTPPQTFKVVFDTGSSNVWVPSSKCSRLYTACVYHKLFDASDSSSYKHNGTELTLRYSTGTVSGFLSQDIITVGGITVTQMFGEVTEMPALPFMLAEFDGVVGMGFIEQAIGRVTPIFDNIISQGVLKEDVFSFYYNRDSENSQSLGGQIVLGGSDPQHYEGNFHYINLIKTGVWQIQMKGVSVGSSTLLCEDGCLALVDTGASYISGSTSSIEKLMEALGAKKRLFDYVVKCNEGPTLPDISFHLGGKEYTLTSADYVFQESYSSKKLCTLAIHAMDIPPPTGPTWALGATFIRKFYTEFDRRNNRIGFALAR
Experiment: Inhibition of human recombinant renin using fluorescence-quenched RE(EDANS)IHPFHLVIHTK(Dabcyl)R substrate by fluorimetric assay
ASSAY METRIC: IC50 (nM)

- MOLECULE: "CCOC[C@@H](CC(C)C)NC(=O)[C@@H]1CNC[C@H](C(=O)N(c2cc(OCC)c(CC)cn2)C2CC2)[C@@H]1O"
  STUDY SYSTEM: "Renin (Homo sapiens, UniProt P00797)"
  EXPERIMENTAL RESULT: 0.6
- MOLECULE: "CCOC[C@@H](CC(C)C)NC(=O)[C@@H]1CNC[C@H](C(=O)N(c2cc(OC)c(C(C)C)cn2)C2CC2)C1"
  STUDY SYSTEM: "Renin (Homo sapiens, UniProt P00797)"
  EXPERIMENTAL RESULT: 0.2
- MOLECULE: "CC(C)(C)OC(=O)N[C@@H]1CNC[C@H](C(=O)N(Cc2cccc(Cl)c2Cl)C2CC2)C1 (racemic)"
  STUDY SYSTEM: "Renin (Homo sapiens, UniProt P00797)"
  EXPERIMENTAL RESULT: 200
- MOLECULE: "CCOC[C@@H](CC(C)C)NC(=O)[C@@H]1CNC[C@H](C(=O)N(c2cc(OCCCOC)c(C(C)C)cn2)C2CC2)C1.Cl"
  STUDY SYSTEM: "Renin (Homo sapiens, UniProt P00797)"
  EXPERIMENTAL RESULT: 0.4
- MOLECULE: "COCCCn1cc(CN(C(=O)[C@H]2CNC[C@@H](C(=O)NCC(C)C)C2)C2CC2)c2ccccc21 (racemic)"
  STUDY SYSTEM: "Renin (Homo sapiens, UniProt P00797)"
  EXPERIMENTAL RESULT: 15
- MOLECULE: "COCCCn1cc(CN(C(=O)[C@H]2CNC[C@@H](C(=O)Nc3c(C)cccc3OC)C2)C2CC2)c2ccccc21"
  STUDY SYSTEM: "Renin (Homo sapiens, UniProt P00797)"
  EXPERIMENTAL RESULT: 0.4
- MOLECULE: "COCCCn1cc(CN(C(=O)[C@H]2CNC[C@@H](C(=O)N[C@H](CCO)c3ccccc3)C2)C2CC2)c2ccccc21"
  STUDY SYSTEM: "Renin (Homo sapiens, UniProt P00797)"
  EXPERIMENTAL RESULT: 0.4
- MOLECULE: "Cc1ccc(S(=O)(=O)N[C@@H]2CNC[C@H](C(=O)NC(c3ccccc3)c3ccccc3)C2)cc1 (racemic)"
  STUDY SYSTEM: "Renin (Homo sapiens, UniProt P00797)"
  EXPERIMENTAL RESULT: 1200
- MOLECULE: "CCOC[C@@H](CC(C)C)NC(=O)[C@@H]1CNC[C@H](C(=O)N(c2cc(OCC)c(CC)cn2)C2CC2)C1"
  STUDY SYSTEM: "Renin (Homo sapiens, UniProt P00797)"
  EXPERIMENTAL RESULT: 0.2
